The values you see were collected from patent US20240335429A1.

System: H661 cells
measurement description: CellTiter-Glo viability assay, H661
Assay type: cell-based
stated conditions: Homo sapiens, NCI-H661, 72 h, read-out: IC50 of cell viability
readout kind: pIC50
pIC50 here is simply -log10 of the concentration when that concentration is written in mol/L.

Lookup: Need pIC50 of COc1ccccc1NC(=O)Nc1ccc([N+](=O)[O-])cc1O [QE-18-WG07] , thanks.
Found: 6.28

---

Tested on: SNU-398 cells
measurement description: CellTiter-Glo viability assay, SNU-398
Type: cell-based, human
stated conditions: Homo sapiens, 72 h cell viability, read-out: half maximal growth inhibition EC50
Method: Cells were plated in RPMI culture media (40 μL) in 384-well white, flat-bottom plates (Corning) and incubated at 37° C. in a humidified atmosphere of 5% CO2 overnight. The numbers of cells per well were 1,500 for SNU-398 and SNU-182, 750 for SNU-387, SNU-449, SNU-475 and SNU-423, and 1,000 for H661 and H1299. […] After that, luminescence readings were recorded by a Microplate Reader (PHERAstar or Tecan Infinite M200 Pro) according to the manufacturer's instruction for measuring the luminescence.
readout kind: EC50 (nM)
Lab book: enter the figure in nM, no units written.

Lookup: Need EC50 of `COc1ccccc1NC(=O)Nc1ccc([N+](=O)[O-])cc1O` , thanks.
Found: 310
